Data provenance: patent US8455421B2

Test system: laccase from Trametes versicolor (LTV)
experiment.summary: Compatibility of laccase with ionic liquids (oxidation of catechol to 1,2-benzoquinone)
Type: biochemical
experimental.context: laccase 25 mg/L, sodium phosphate-citrate buffer 25 mM, pH 4.5, 22° C., 405 nm
assay.endpoint: Concentration of ionic liquid in water that inactivates Laccase (LTV) (%)

molecule="CC(O)C(=O)[O-].CCCCn1cc[n+](C)c1 [[bmim]^+[CH3CH(OH)CO2]^−]" result_value=90
molecule="CCOS(=O)(=O)[O-].CC[N+](C)(C)CCO [[N2,1,1,2OH]^+[EtOSO3]^−]" result_value=30
molecule="CCCC[N+](C)(C)CC.CCOS(=O)(=O)[O-] [[N4,2,1,1]^+[EtOSO3]^−]" result_value=70
molecule="CCCCC(CC)COC(=O)CC(C(=O)OCC(CC)CCCC)S(=O)(=O)[O-].CCCC[N+]1(C)CCCC1 (stereo not drawn) [[bmpyr]^+[docusate]^−]" result_value=90
molecule="CCCCCCCC[N+](C)(C)CCCC.O=[N+]([O-])[O-] [[N8,4,1,1]^+[NO3]^−]" result_value=90
molecule="CCCCC(CC)COC(=O)CC(C(=O)OCC(CC)CCCC)S(=O)(=O)[O-].CCCCn1cc[n+](C)c1 (stereo not drawn) [[bmim][docusate], 1-methyl-3-butylimidazolium docusate]" result_value=90
molecule="CCOS(=O)(=O)[O-].C[N+](C)(C)CCCO [[N1,1,1,3OH]^+[EtOSO3]^−]" result_value=30

I. CCCCC(CC)COC(=O)CC(C(=O)OCC(CC)CCCC)S(=O)(=O)[O-].CCn1cc[n+](C)c1 (stereo not drawn) [[emim][docusate]]
II. CCOS(=O)(=O)[O-].CCn1cc[n+](C)c1 [[emim]^+[EtOSO3]^−]
Req: Compare I and II and name the one whose reported Concentration of ionic liquid in water that inactivates Laccase (LTV) is smaller. // return label of chosen record
Resp: II
